Provide the recorded inhibition at 1000 µM for the entries that follow.
- Test system: Cucumis sativus
- test_summary: Phytotoxic activity against Cucumis sativus (cucumber)seeds assessed as inhibition of radicle growth at 10^-3 mol/l at 25 degC after 72 hr by filter-paper based radicle elongation assay
- Type: functional
Please state the figure in %; there is no need to write the unit.

Q: Endpoint output: inhibition at 1000 µM of `CCCN/C(C)=C1\C(=O)C=C(C)OC1=O` . Value?
A: 46.2

Q: Param item: `CC1=CC(=O)/C(=C(/C)Nc2ccccc2O)C(=O)O1`
A: 69.3

Q: Param item: `CC1=CC(=O)/C(=C(/C)Nc2ccccc2)C(=O)O1`
A: 81.1

Q: Param item: CC(=O)C1C(=O)C=C(C)OC1=O (stereo unspecified) [DEHYDROACETIC ACID]
A: 87.6

Q: Param item: `CC1=CC(=O)/C(=C(/C)Nc2ccccc2Cl)C(=O)O1`
A: 88.3

Q: Param item: `COC(=O)[C@H](C)N/C(C)=C1\C(=O)C=C(C)OC1=O`
A: 76.3

====

Provide the recorded inhibition at 500 µM for the entries that follow.
- Tested on: Urochloa decumbens
- test_summary: Phytotoxicity against Urochloa decumbens pregerminated seeds assessed as inhibition of aerial parts development at 5x10'-4 mol/l at 28 degC after 24 to 48 hr by sand based radicle elongation assay
- Type: functional
Please state the figure in %; there is no need to write the unit.

Q: Any idea what inhibition at 500 µM came out for `CC1=CC(=O)/C(=C(/C)Nc2cc([N+](=O)[O-])ccc2O)C(=O)O1` on Urochloa decumbens?
A: 15

Q: Param item: `CC[C@H](C)N/C(C)=C1\C(=O)C=C(C)OC1=O`
A: 71

Q: Param item: `COC(=O)[C@H](C)N/C(C)=C1\C(=O)C=C(C)OC1=O`
A: 33

Q: Param item: `COC(=O)CN/C(C)=C1\C(=O)C=C(C)OC1=O`
A: 33

Q: Param item: CC(=O)C1C(=O)C=C(C)OC1=O (stereo not given) [DEHYDROACETIC ACID]
A: 8

====

- Test system: Urochloa decumbens
- test_summary: Phytotoxicity against Urochloa decumbens seeds assessed as inhibition of aerial parts development at 5x10'-5 mol/kg measured at 21 days after seed sowing by green house trials
- Assay type: functional
measured_property: inhibition (INH) (%)
Please state the figure in %; there is no need to write the unit.

Q: Endpoint output: inhibition (INH) of `CC1=CC(=O)/C(=C(/C)Nc2cc(Cl)c([N+](=O)[O-])cc2O)C(=O)O1` . Value?
A: -20.3

Q: Param item: `CC[C@H](C)N/C(C)=C1\C(=O)C=C(C)OC1=O`
A: 70.8

Q: Param item: `COC(=O)CN/C(C)=C1\C(=O)C=C(C)OC1=O`
A: 33.3

Q: Param item: `COC(=O)[C@H](C)N/C(C)=C1\C(=O)C=C(C)OC1=O`
A: 33.3

Q: Param item: `COC(=O)[C@@H](N/C(C)=C1\C(=O)C=C(C)OC1=O)C(C)C`
A: -47.4

Q: Param item: `CC1=CC(=O)/C(=C(/C)Nc2cc([N+](=O)[O-])ccc2O)C(=O)O1`
A: 15

Q: Param item: `CC1=CC(=O)/C(=C(/C)NCc2ccccc2)C(=O)O1`
A: 22.8

Q: Param item: CC(=O)C1C(=O)C=C(C)OC1=O (stereo not drawn) [DEHYDROACETIC ACID]
A: -41.2

Data credit: ChEMBL document CHEMBL3046321
